Biological target: protein farnesyltransferase (FTase), wild type (UniProt Q04631 1-377; Q02293 1-437)
Test: fluorescence polarisation
Where no end group is shown, it is not given here. The star is where a group is joined. Dansyl = CN(C)c1cccc2c(S(=O)(=O)*)cccc12
measure_name: Kd
Kindly report the value followed by its unit.

Req: Look up Kd for this binder: Dansyl-TKCSLG [dansyl-TKCSLG]
Resp: 3.4 nM

Req: Would you mind telling me what Kd value was observed for Dansyl-TKCAVQ [dansyl-TKCAVQ] ?
Resp: 13 nM

Req: Using the record for Dansyl-TKCGIM [dansyl-TKCGIM] , report its Kd.
Resp: 3.6 nM

Req: Any idea what its Kd is? The binder is Dansyl-TKCTKF [dansyl-TKCTKF]
Resp: 6 nM
